Reference source: the DeepSol protein solubility set

experiment: soluble on expression in E. coli; label from the status in PepcDB or PDB records

Chain	soluble on expression in E. coli
MGSDKIHHHHHHMQPYYWESAHGNFGDDLNLWLWDFLMPGFRDVHPETLLVGVGTVLNRALLPEGQHKLVIGSGFGYGSLPDMSRPEEWDIRSVRGPLTAKALGLPPEKGVIDPAVMLADMPEFQKLPKLYKKSFVPHWESAVAGVWASIVPKVGLTYIDPCGEAKAVIRQILQSEVIIAESMHGAIIADALRVPWVAVSTSASINSFKWNDWASTLGVTYKPLRVPLSSRAEAQIKGESFWGMSFKNHQPAPENPNDLAVDAAVLEQARGPKQTGLRTAVKQILAGPAMLNLWKASQAEPQLSRDSVLQERKARFLEVIEGVRRDYGIAAVS	not soluble
MENNPFQRTEKIDISWCPGCGNFAIKASLSNALSKLNLKPQNVAIISGIGQAGKMPHYMFVNGFHTLHGRAIPAATAVKATNPELTVIAEGGDGDMYAEGGNHLIHAIRRNPNITVLIHNNQIYGLTKGQASPTTLVSTKTPTQPWGVFEEPLNPIALAISLNASFVARTFSGNLEKTEEIIIKAINHKGLSIVDIFHPCPSFNKVNTLQWYNENTYFLEDHDVTDRKKAFEKALQTEKYPLGIFYTCEKPVFEEVVPPYISEKTPIWKREPDLEKIEEIINSKRT	not soluble
MGEVFKMDGLASTILEVHKPAKLEDIPDEDPIAIILALKWLEYLCERAGVENVSDILDFYYMLGWLGDKALAKLLKFLKGIKVDEENVVEGSGKLNITDHIISLLFIERLNGKKISAELLDKIEWELRKIKKGAEQFYGI	not soluble
